This collection of values is drawn from the supplement of paper PMC11208160.

experiment: recombinant barcode read abundance after kanamycin selection (control-corrected) (log10(CPM+1)); higher = more efficient recombination; sequences stand for … in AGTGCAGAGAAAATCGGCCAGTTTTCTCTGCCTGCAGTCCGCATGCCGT…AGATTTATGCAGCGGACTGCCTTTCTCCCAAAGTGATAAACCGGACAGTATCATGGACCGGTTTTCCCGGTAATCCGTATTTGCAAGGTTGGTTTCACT; site = the 11-nt target;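 further: IS621 recombinase and bridge RNA in Escherichia coli cells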
Measurement kind: recombinant barcode read abundance (log10)
Just the number, please, no unit attached.

These recorded examples may help you get a feel for the data.
- Sequence entry: "GACCAGCCTTGGGTTCTAACCTGTTGCCT (site GACCAGCCTAC)"
  Numeric readout: 0.0691
- Sequence entry: "CAGTGGACTTGGGTTCTAACCTGTTGCCT (site CAATGGACTAG)"
  Numeric readout: 0.961
- Sequence entry: "GAGGGCCCTTGGGTTCTAACCTGTTGCGG (site GAGGGCCCTCA)"
  Numeric readout: 1.94
- Sequence entry: "TGAAACTCTTGGGTTCTAACCTGTTGCGG (site TGAAACTCTCC)"
  Numeric readout: 1.16
- Sequence entry: "TCAGCGACTTGGGTTCTAACCTGTTGCCT (site TCAGCGACTAG)"
  Numeric readout: 0.481
- Sequence entry: "TTCTATGCTTGGGTTCTAACCTGTTGCCT (site TCCTGTGCTAG)"
  Numeric readout: 0.24

Prompt: Form field: reported recombinant barcode read abundance (log10) of GGTGCGGCTTGGGTTCTAACCTGTTGCCT (site CGTGCGGCTAG)
Response: 0.139

Prompt: Form field: reported recombinant barcode read abundance (log10) of AGTCACACTTGGGTTCTAACCTGTTGCAG (site AGTCACACTCT)
Response: 1.44

Prompt: Form field: reported recombinant barcode read abundance (log10) of TCTAGAGCTTGGGTTCTAACCTGTTGCGG (site CCTCGAGCTCC)
Response: 0.176

Prompt: Form field: reported recombinant barcode read abundance (log10) of CAGTGGACTTGGGTTCTAACCTGTTGCCT (site CATTGGACTAG)
Response: 0.0477

Prompt: Form field: reported recombinant barcode read abundance (log10) of CGGGCCACTTGGGTTCTAACCTGTTGCCT (site CAGGCCACTAG)
Response: 0.198

Prompt: Form field: reported recombinant barcode read abundance (log10) of TCCGCTGCTTGGGTTCTAACCTGTTGCCT (site TCCGCTACTAG)
Response: 0.151

Prompt: Form field: reported recombinant barcode read abundance (log10) of GGTTGTCCTTGGGTTCTAACCTGTTGCTA (site GGTTGTCCTTA)
Response: 0.181
